Target: T1, LIN7C, Q9NUP9
T1 sequence (Q9NUP9 88-185, limits assumed, looked up): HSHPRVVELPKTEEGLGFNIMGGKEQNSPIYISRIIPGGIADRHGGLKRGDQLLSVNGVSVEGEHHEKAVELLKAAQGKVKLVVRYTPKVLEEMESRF
Test: holdup assay
Parameters: key: below the threshold = too weak to quantify, mostly under pKd 3.1 to 4
Details: plain residues with an end cap or a label only (N-terminal biotin on a linker: ahx)
MEASUREMENT NAME: pKd

Worked cases, pKd given:
# BINDER, pKd
rows = [
    ("EKQAKGDTEF [CACYBP, Q9HB71]", "below the threshold"),
    ("TEAKLTETNA [MYO18A, Q92614]", "below the threshold"),
    ("APSRKLNTEI [TIAM1, Q13009]", "below the threshold"),
    ("QNTDDVQTSF [ACE2, Q9BYF1]", "below the threshold"),
]

Now look at this one.
## Input Tell me its pKd given QDEKVKESYV [ABCA1, O95477] as the entry.
## Output 4.59
